System: MCF7
Experiment: Cytotoxicity against human MCF7 cells assessed as inhibition of cell viability after 48 hrs by Sulforhodamine B assay
Format: functional, cell-based
Settings: MCF7, 48 h
Returns: string. Value is Met if measured IC50 is below 5 µg/mL, and Not met if it is greater than or equal to it.

# strict comparison: is reported IC50 < 5 µg/mL? input = `Nc1n[nH]c2nc3nc(-c4ccccc4)cc(-c4ccc(Cl)cc4)c3c(=O)n12` Met

# strict comparison: is reported IC50 < 5 µg/mL? input = `Cc1n[nH]c2nc3nc(-c4ccccc4)cc(-c4ccc(Cl)cc4)c3c(=O)n12` Not met

# strict comparison: is reported IC50 < 5 µg/mL? input = `O=c1c2c(-c3ccc(Cl)cc3)cc(-c3ccccc3)nc2nc2[nH][nH]c(=S)n12` Not met

# strict comparison: is reported IC50 < 5 µg/mL? input = `CSc1n[nH]c2nc3nc(-c4ccccc4)cc(-c4ccc(Cl)cc4)c3c(=O)n12` Met

# strict comparison: is reported IC50 < 5 µg/mL? input = `O=c1c2c(-c3ccc(Cl)cc3)cc(-c3ccccc3)nc2nc2[nH]nc(SCc3ccccc3)n12` Not met

# strict comparison: is reported IC50 < 5 µg/mL? input = `Cc1ccc(-c2n[nH]c3nc4nc(-c5ccccc5)cc(-c5ccc(Cl)cc5)c4c(=O)n23)cc1` Not met

# strict comparison: is reported IC50 < 5 µg/mL? input = `CCc1n[nH]c2nc3nc(-c4ccccc4)cc(-c4ccc(Cl)cc4)c3c(=O)n12` Not met

# strict comparison: is reported IC50 < 5 µg/mL? input = `O=c1[nH][nH]c2nc3nc(-c4ccccc4)cc(-c4ccc(Cl)cc4)c3c(=O)n12` Not met

# strict comparison: is reported IC50 < 5 µg/mL? input = `CCOC(=O)CSc1n[nH]c2nc3nc(-c4ccccc4)cc(-c4ccc(Cl)cc4)c3c(=O)n12` Met

# strict comparison: is reported IC50 < 5 µg/mL? input = `O=c1c2c(-c3ccc(Cl)cc3)cc(-c3ccccc3)nc2nc2[nH]nc(-c3ccccc3)n12` Not met

# strict comparison: is reported IC50 < 5 µg/mL? input = `CCSc1n[nH]c2nc3nc(-c4ccccc4)cc(-c4ccc(Cl)cc4)c3c(=O)n12` Not met

# strict comparison: is reported IC50 < 5 µg/mL? input = `O=c1c2c(-c3ccc(Cl)cc3)cc(-c3ccccc3)nc2nc2[nH]nc(CCl)n12` Not met

# strict comparison: is reported IC50 < 5 µg/mL? input = `O=c1c2c(-c3ccc(Cl)cc3)cc(-c3ccccc3)nc2nc2[nH]ncn12` Not met
